Target: bradykinin (BK) B2 receptors (Homo sapiens)
Construct: The cell strains used in the study were human primary vein endothelial cells (HPVEC) and human aortic smooth muscle cells (HASMC); endogenous in cells; host or cells: human primary vein endothelial cells (HPVEC) and human aortic smooth muscle cells (HASMC)
Sequence (P30411 whole entry): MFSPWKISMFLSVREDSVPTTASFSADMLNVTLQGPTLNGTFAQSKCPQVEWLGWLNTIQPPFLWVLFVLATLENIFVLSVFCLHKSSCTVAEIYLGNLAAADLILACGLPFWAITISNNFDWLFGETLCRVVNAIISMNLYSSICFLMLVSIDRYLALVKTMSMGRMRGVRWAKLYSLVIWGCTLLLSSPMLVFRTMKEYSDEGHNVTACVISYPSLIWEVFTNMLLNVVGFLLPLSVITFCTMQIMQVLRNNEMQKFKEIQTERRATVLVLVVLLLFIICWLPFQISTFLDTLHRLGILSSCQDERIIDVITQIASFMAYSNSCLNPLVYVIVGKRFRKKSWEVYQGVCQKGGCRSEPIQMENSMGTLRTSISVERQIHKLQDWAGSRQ
Experiment: PG secretion by BK B2 receptor agonists (PG kit, OD), EC50 and Emax
Format: cell-based
Details: HASMC, 1 h incubation at 37° C.
readout_kind: EC50 (nM)
Write it as a number; the unit nM goes unstated.

Example cases with answers are listed next.
structure_string: CNC(=O)c1ccc(CCC(=O)NCC(=O)N(C)c2ccc(Cl)c(COc3cccc4c3nc(OC)n4Cc3ccccn3)c2Cl)cc1
EC50 / nM: 24.4
--
structure_string: CNC(=O)N1CCN(CCC(=O)NCC(=O)N(C)c2ccc(Cl)c(COc3cccc4c3nc(OC)n4Cc3ccccn3)c2Cl)CC1
EC50 / nM: 26.2

Lab note: measured EC50 of COc1nc2c(OCc3c(Cl)ccc(N(C)C(=O)CNC(=O)CCc4ccc(NC(C)=O)nc4)c3Cl)cccc2n1Cc1ccccn1 was 40.6
